Entry source: the supplement of paper PMC9938120

Tested on: FMOC27 (patient-derived low-grade serous ovarian cancer cells)
Experiment: drug sensitivity score (DSS3, normalised partial AUC of % inhibition dose-response) (DSS (score)); higher = more sensitive (stronger inhibition of viability); extreme values may be limits of the assay
Details: 72 h; library: FO5A; assay format: 2D, 384-well, CellTiter-Glo
measure_name: drug sensitivity score

>>> value("CC(C)C(=O)Nc1ccc([N+](=O)[O-])c(C(F)(F)F)c1 [Flutamide]")
0
>>> value("Cn1cc(C[C@@H](N)C(=O)O)c2ccccc21")
0
>>> value("O=C(CCCCCCC(=O)Nc1ccc([C@H]2O[C@@H](CSc3nc(-c4ccccc4)c(-c4ccccc4)o3)C[C@@H](c3ccc(CO)cc3)O2)cc1)NO")
0.4
>>> value("CC(O)c1cc(C(=O)N[C@@H](C)Cn2ccc(-c3ccc(C#N)c(Cl)c3)n2)n[nH]1 (stereo partly drawn)")
0
>>> value("Cc1cccc(CC(=O)N2CCc3c2ccc(-c2cn(C)c4ncnc(N)c24)c3F)n1")
0
>>> value("COc1cc2ncnc(Oc3cccc(NC(=O)Nc4cc(C(C)(C)C(F)(F)F)on4)c3)c2cc1OC")
0
>>> value("CNCc1ccc(-c2[nH]c3cc(F)cc4c3c2CCNC4=O)cc1")
1.7
>>> value("CC#CC(=O)N1CCC[C@H]1c1nc(-c2ccc(C(=O)Nc3ccccn3)cc2)c2c(N)nccn12")
0
>>> value("COc1cc2ncnc(Nc3cccc(Cl)c3F)c2cc1OC(=O)N1CCN(C)C[C@H]1C")
2.8
>>> value("Cc1c(F)cc(C(=O)NC2CC2)cc1-c1ccc(C(=O)NCC(C)(C)C)cn1")
0
>>> value("C/C(=C\\c1csc(C)n1)[C@@H]1C[C@@H]2O[C@]2(C)CCC[C@H](C)[C@H](O)[C@@H](C)C(=O)C(C)(C)[C@@H](O)CC(=O)N1 [Ixabepilone]")
0.9
>>> value("CS(=O)(=O)c1ccc(-c2cnc(N)c(C(=O)Nc3ccccc3)n2)cc1")
1.3
>>> value("N#Cc1ccnc(N2C(=O)CC[C@H]2C(=O)N(c2cncc(F)c2)[C@H](C(=O)NC2CC(F)(F)C2)c2ccccc2Cl)c1")
0
>>> value("CC(C)(C)NC(=O)[C@H]1CC[C@H]2[C@@H]3CC[C@H]4NC(=O)C=C[C@]4(C)[C@H]3CC[C@]12C [Finasteride]")
0
>>> value("COCCNCc1ccc(-c2cc3nccc(Oc4ccc(NC(=S)NC(=O)Cc5ccc(F)cc5)cc4F)c3s2)nc1")
0
>>> value("CC(C)Oc1ccc(-c2nn([C@@H](C)c3oc4ccc(F)cc4c(=O)c3-c3cccc(F)c3)c3ncnc(N)c23)cc1F")
0.1
>>> value("COc1cc(N2CCN(C)CC2)ccc1Nc1nccc(-c2cn(C)c3cnccc23)n1")
1.6
>>> value("NC(=O)c1cccc(-c2cccc(OC(=O)NC3CCCCC3)c2)c1")
0

* * *

Test system: FMOC02_3 (patient-derived low-grade serous ovarian cancer cells)
Assay: drug sensitivity score (DSS3, normalised partial AUC of % inhibition dose-response) (DSS (score)); higher = more sensitive (stronger inhibition of viability); extreme values may be limits of the assay
Settings: 72 h; library: FO5A; assay format: 2D, 384-well, CellTiter-Glo
measure_name: drug sensitivity score

>>> value("CCN1CCN(Cc2ccc(Nc3ncc(F)c(-c4cc(F)c5nc(C)n(C(C)C)c5c4)n3)nc2)CC1")
11.6
>>> value("O=C1Cc2cc(C(=O)NC3C[C@H]4CC[C@@H](C3)N4S(=O)(=O)CC3CCN(CCCC(F)(F)F)CC3)c(Cl)cc2N1 (stereo partly specified)")
0
>>> value("CC(=O)O[C@]1(C(C)=O)CC[C@H]2[C@@H]3C=C(C)C4=CC(=O)CC[C@]4(C)[C@H]3CC[C@@]21C [Megestrol acetate]")
0
>>> value("CNC(=O)c1ccc2cc([C@@]3(O)CCn4cncc43)ccc2c1")
0
>>> value("CNc1nc(Nc2cn(C(C)(C)C#N)nc2C)ncc1C(F)(F)F")
0
>>> value("C[C@@H](C(=O)O)c1ccc(-c2ccccc2)c(F)c1")
0.3
>>> value("CCc1cc2c(cc1N1CCC(N3CCOCC3)CC1)C(C)(C)c1[nH]c3cc(C#N)ccc3c1C2=O")
0.6
>>> value("N#CCNC(=O)c1ccc(-c2ccnc(Nc3ccc(N4CCOCC4)cc3)n2)cc1")
9.9
>>> value("O=C(CCCCCCC(=O)Nc1ccc([C@H]2O[C@@H](CSc3nc(-c4ccccc4)c(-c4ccccc4)o3)C[C@@H](c3ccc(CO)cc3)O2)cc1)NO")
0.4
>>> value("CCCCOc1nc(N)c2c(n1)N(Cc1cccc(CN3CCCC3)c1)CC(=O)N2")
0
>>> value("COc1cc2ncnc(Nc3ccc(F)c(Cl)c3)c2cc1NC(=O)/C=C/CN1CCCCC1")
18
>>> value("Cc1cccc(-c2nn3c(c2-c2ccnc4ccc(C(N)=O)cc24)CCC3)n1")
0
>>> value("COc1cc(C(=O)O)ccc1NC(=O)[C@@H]1N[C@@H](CC(C)(C)C)[C@](C#N)(c2ccc(Cl)cc2F)[C@H]1c1cccc(Cl)c1F")
22.7
>>> value("Cc1cc(Nc2cc(N3CCN(C)CC3)nc(/C=C/c3ccccc3)n2)n[nH]1")
13.7
>>> value("COc1ccc(-c2ccc3c(N4CCOC[C@@H]4C)nc(N4CCOC[C@@H]4C)nc3n2)cc1CO")
29.9
>>> value("S=C(NCc1ccc2c(c1)OCO2)N1CCN(c2ncnc3c2oc2ccccc23)CC1")
0
>>> value("C=CC(=O)N1CC/C(=C\\c2ccc(F)c([N+](=O)[O-])c2)C(=O)/C(=C/c2ccc(F)c([N+](=O)[O-])c2)C1")
25
>>> value("CN(C)C[C@@H]1CCn2cc(c3ccccc32)C2=C(C(=O)NC2=O)c2cn(c3ccccc23)CCO1")
12.8
>>> value("CCOCc1nc2c(N)nc3ccccc3c2n1CC(C)(C)O")
0
>>> value("Cc1nc(Nc2n[nH]c3c2CN(C(=O)N[C@H](CN(C)C)c2ccccc2)C3(C)C)c2sccc2n1")
20.9
>>> value("Nc1nccc(-c2c(-c3ccc(F)cc3)ncn2C2CCCCC2)n1")
1.1
>>> value("C[C@]12C=CC(=O)C=C1CC[C@@H]1[C@@H]2[C@@H](O)C[C@@]2(C)[C@H]1CC[C@]2(O)C(=O)CO")
0
>>> value("COc1cccc2c1C(=O)c1c(O)c3c(c(O)c1C2=O)C[C@@](O)(C(=O)CO)C[C@@H]3O[C@H]1C[C@H](N)[C@H](O)[C@H](C)O1")
7.2
>>> value("Cc1cc(F)c(C(=O)Nc2cccc(-c3nncn3C(C)C)n2)cc1-n1cnc(C2CC2)c1")
0
>>> value("O=C(c1ccc(OCCN2CCCCC2)cc1)c1c(-c2ccc(O)cc2)sc2cc(O)ccc12")
4.5
>>> value("O=C(O)CC1CC(c2ccccc2)=NO1 (stereo unspecified)")
0
>>> value("CCCN(CCC)C(=O)C1=Cc2ccc(-c3ccc(C(=O)N4CCCC4)cc3)cc2N=C(N)C1")
1.6
>>> value("O=C1c2c(O)ccc(O)c2C(=O)c2c(NCCNCCO)ccc(NCCNCCO)c21")
5.9
>>> value("CC(C)N(CCCNC(=O)Nc1ccc(C(C)(C)C)cc1)C[C@H]1O[C@@H](n2cc(Br)c3c(N)ncnc32)[C@H](O)[C@@H]1O")
0.9
>>> value("COC[C@H](NC(=O)c1cnc(C)s1)C(=O)N[C@@H](COC)C(=O)N[C@@H](Cc1ccccc1)C(=O)[C@@]1(C)CO1")
15.1
>>> value("Cc1cc(Nc2ncnc3ccc(NC4=NC(C)(C)CO4)cc23)ccc1Oc1ccn2ncnc2c1")
0

* * *

Test system: FMOC02_2 (patient-derived low-grade serous ovarian cancer cells)
Experiment: drug sensitivity score (DSS3, normalised partial AUC of % inhibition dose-response) (DSS (score)); higher = more sensitive (stronger inhibition of viability); extreme values may be limits of the assay
Settings: 72 h; library: FO5A; assay format: 2D, 384-well, CellTiter-Glo
Assign class by drug sensitivity score: not lower than 0.8 means t; lower than 0.8 means f.

>>> group("O=C(NC1CCNCC1)c1n[nH]cc1NC(=O)c1c(Cl)cccc1Cl [AT7519]")
"t"
>>> group("C[C@]12CC[C@H](O)CC1=CC[C@@H]1[C@@H]2CC[C@]2(C)C(c3cccnc3)=CC[C@@H]12 [Abiraterone]")
"t"
>>> group("O=C(CCCCCCC(=O)Nc1ccc([C@H]2O[C@@H](CSc3nc(-c4ccccc4)c(-c4ccccc4)o3)C[C@@H](c3ccc(CO)cc3)O2)cc1)NO [Tubacin]")
"f"
>>> group("COc1ccc(-c2ccc3c(N4CCOC[C@@H]4C)nc(N4CCOC[C@@H]4C)nc3n2)cc1CO [AZD8055]")
"t"
>>> group("CCc1cnn2c(NCc3ccc[n+]([O-])c3)cc(N3CCCC[C@H]3CCO)nc12 [Dinaciclib]")
"t"
>>> group("O=C(c1ccc(C(=O)N2CCC(N3CCCC3)CC2)c(Nc2ccccc2)c1)N1CCC(N2CCCC2)CC1 [UNC1215]")
"f"
